Reference source for all entries: PubChem BioAssay (NCATS)

- run-description: BET inhibitor-based combinations targeting novel dependencies in MECOM-rearranged (r) AML: UCSD-AML1 cell line (AID 2202235); also: nearly all actives have a fitted effect of over 40% in size
- assay-context: UCSD-AML1 AML cells viability, CellTiter-Glo, 48 h; series mostly up to 46 µM
- Description: Ecotropic viral insertion site 1 (EVI1) is located on chromosome 3q26.2 as part of the MECOM (MDS and EVI1 complex) locus. […] A collection of 2480 mechanistically annotated dugs (MIPE v5.0) was used to screen four 3q26.2 rearranged AML cell lines and three non-3q26.2 rearranged AML cell lines. […] Cell viability was determined by luminescence based, Cell Titer Glo assay (Promega). […] Luminescence readings were taken using a Viewlux (PerkinElmer) with a 2 s exposure time per plate. […]
Results filed as inconclusive are left out. Calls of active or inactive are those of the source. Calls follow the shape of the dose curve; as a rule, active = well fitted inhibition curve with a large enough effect; inconclusive = small, poorly fitted or top-dose-only effect; inactive = no such curve, though single readings can be large or run the other way.
Write down one outcome, taken from true (active), false (inactive)

- compound: "Cc1ccc(Sc2ccccc2N2CCNCC2)c(C)c1"
  answer-label: "true"
- compound: "Cc1cc(-n2c(=O)ccc3cnc4[nH]ccc4c32)ccc1F"
  answer-label: "true"
- compound: "C=C1[C@H](OC(=O)/C=C(\\C)CC)C[C@@H](C(C)C)[C@@H]2[C@H]([C@@H](C)OC(C)=O)C(=O)C[C@@H]12"
  answer-label: "false"
- compound: "COc1ccc(S(=O)(=O)N[C@@H](CNc2nc(C)nc(N3CCC(c4ccc5c(n4)NCCC5)CC3)c2C)C(=O)O)cc1"
  answer-label: "false"
- compound: "CNC(=O)Cn1cc(-c2ccc3c(c2)C(F)CC32NC(=O)N(CC(=O)N(Cc3ccc(F)cc3)C(C)C(F)(F)F)C2=O)cn1 (stereo not drawn)"
  answer-label: "true"
- compound: "CCc1c(C(=O)NNC(=O)[C@@H](O)c2cc(F)cc(F)c2)ccc(O)c1C"
  answer-label: "true"

Lab log entry: Cc1ccc2cc(-c3c(C)ccc(C(=O)c4c(-c5ccccc5)n(C)n(-c5ccccc5)c4=O)c3N)ccc2n1 — outcome as called in the assay?
false

Lab log entry: C[C@H]1COCCN1c1cc(C2(S(=O)(=O)C3CC3)CC2)nc(-c2ccc(NC(=S)NCCO)cc2)n1 — outcome as called in the assay?
true

###

- run-description: BET inhibitor-based combinations targeting novel dependencies in MECOM-rearranged (r) AML: OCI-AML3 cell line (AID 2202232); also: nearly all actives have a fitted effect of over 35% in size
- assay-context: CellTiter-Glo luminescence, 48 h; OCI-AML3 viability; series mostly up to 46 µM
Records with an inconclusive call do not appear. Activity calls are given as the source filed them. The call rests on the fitted dose curve; in most records, active means well fitted inhibition curve with a large enough effect; inconclusive means small, poorly fitted or top-dose-only effect; inactive means no such curve, though single readings can be large or run the other way.
Write down one outcome, taken from 1 = active, -1 = inactive

Lab log entry: Nc1ccc(C(=O)c2cc3c(ccc4ccccc43)[nH]2)cc1 — outcome as called in the assay?
1

Lab log entry: O=C(NO)c1cnc(NC2(c3ccccc3)CC2)nc1 — outcome as called in the assay?
1

Lab log entry: C[C@H]1[C@H](O)O[C@@H]2O[C@@]3(C)CC[C@H]4[C@H](C)CC[C@@H]1[C@@]24OO3 — outcome as called in the assay?
1

Lab log entry: Cc1ccc(NC(=O)c2cccc(C(C)(C)C#N)c2)cc1Nc1ccc2ncn(C)c(=O)c2c1 — outcome as called in the assay?
1

Lab log entry: N#Cc1c(N(CC(=O)O)CC(=O)O)sc(C(=O)O)c1CC(=O)O — outcome as called in the assay?
-1

Lab log entry: CC(=NNC(=O)c1cccc(S(=O)(=O)N2CCOCC2)c1)c1cc(Cl)ccc1O — outcome as called in the assay?
1

Lab log entry: O=C(Nc1ncc(SCCN2CCCC2)s1)[C@]1(c2ccc(S(=O)(=O)C3CC3)cc2)C[C@H]1C1CCCCC1 — outcome as called in the assay?
1

Lab log entry: COc1ccc2c(c1)CC[C@@H]1[C@@H]2CC[C@]2(C)[C@@H](NCCCCCCN3C(=O)C=CC3=O)CC[C@@H]12 — outcome as called in the assay?
-1

Lab log entry: CNc1nc(-c2ccc3c(N)n[nH]c3c2)cc(N2C[C@@H](C(=O)NC3CCCCC3)CC[C@H]2C)n1 — outcome as called in the assay?
1

Lab log entry: C=CC(=O)N1CCC(C2CCNc3c(C(N)=O)c(-c4ccc(Oc5ccccc5)cc4)nn32)CC1 (configuration not stated) — outcome as called in the assay?
1

Lab log entry: CCc1ccc2nc(Nc3cc(Cc4ccccc4)nc(NC4CCC(O)CC4)n3)sc2c1 (configuration not stated) — outcome as called in the assay?
1

Lab log entry: CN(C)C[C@@H]1CCn2cc(c3ccccc32)C2=C(C(=O)NC2=O)c2cn(c3ccccc23)CCO1 — outcome as called in the assay?
1

Lab log entry: COc1ccc2c(c1OC)C(=O)OC2[C@H]1c2c(cc3c(c2OC)OCO3)CCN1C (some centres not stated) — outcome as called in the assay?
1

Lab log entry: Cn1cc(/C=C/C(=O)c2cccc(F)c2)cc1/C=C/C(=O)NO — outcome as called in the assay?
1

Lab log entry: CNC(=O)CCc1cc(-c2ccc(-c3ccc(C(F)(F)F)cc3)cc2)n(-c2ccc(N3CCNCC3)cc2)n1 — outcome as called in the assay?
1

Lab log entry: COc1cc(Oc2ccnc3cc(OC)c(OC)cc23)ccc1NC(=O)NC(C)c1nccs1 (configuration not stated) — outcome as called in the assay?
1

Lab log entry: Cc1ccc(NC(=O)c2ccc(CN3CC[C@H](N(C)C)C3)c(C(F)(F)F)c2)cc1Nc1nccc(-c2cncnc2)n1 — outcome as called in the assay?
1

Lab log entry: C[C@@H]1COCCN1c1cc(C2(S(C)(=N)=O)CC2)nc(-c2ccnc3[nH]ccc23)n1 (some centres not stated) — outcome as called in the assay?
1

Lab log entry: COc1ccc(S(=O)(=O)N(C(C)=O)c2ccccc2/C=C/c2cc[n+]([O-])cc2)cc1 — outcome as called in the assay?
1

Lab log entry: COc1cccc(Nc2ncnn3ccc(CN4CC[C@@H](N)[C@H](O)C4)c23)c1 — outcome as called in the assay?
1

Lab log entry: C[C@@H](C(=O)Nc1ccc(Cl)cc1)C1CCC(c2ccnc3ccc(F)cc23)CC1 (some centres not stated) — outcome as called in the assay?
-1

Lab log entry: O=C(C1CC1)N1CC[C@@H](Cn2c(-c3ccc(-c4ccc5occc5c4)cc3)nc3cnccc32)C1 — outcome as called in the assay?
1

Lab log entry: C[C@H](NC(=O)CCC(F)(F)F)C(=O)N[C@@H]1C(=O)N(CCO)c2ncccc2-c2ccccc21 — outcome as called in the assay?
-1

Lab log entry: CC(C)C[C@H](NC(=O)c1cc2ccccc2s1)C(=O)N1CCN(C(=O)[C@H](CO)NS(=O)(=O)c2ccc(Cl)cc2Cl)CC1 — outcome as called in the assay?
1

Lab log entry: CC(=O)Nc1ccc(O)cc1 — outcome as called in the assay?
-1

Lab log entry: N=C(N)c1ccc2nc(-c3cc(CC(=O)N[C@@H](CC(=O)O)C(=O)O)cc(-c4cc(S(N)(=O)=O)ccc4O)c3O)[nH]c2c1 — outcome as called in the assay?
-1

Lab log entry: CCC(C)CNCC(=O)N1CCc2sccc2C1c1cccc(C)n1 (configuration not stated) — outcome as called in the assay?
-1

Lab log entry: CC(C)(NS(=O)(=O)c1ccc2c(Cl)cnc(N=C(N)N)c2c1)C(=O)O — outcome as called in the assay?
-1

Lab log entry: CC(C)(O)CNc1ncc(-c2ccnc(Nc3ccncc3)n2)c(CC2CC2)n1 — outcome as called in the assay?
1
